System: Wolbachia pipientis
Assay: Anti-Wolbachia Cell-Based Screen
Assay type: functional
Design: scale not given: in the data most compounds retested in dose-response had high values
Settings: 5 µM
Hit rate of the full screen: of about 48,000 compounds, about 13,000 (27%) showed an effect of 50% or more. The list shows a part of the results.
Strictly below 20% in Percent Effect: 1. Otherwise: -1.

>>> print(df.to_string())
                                   compound  category_label
0  CCOCC1CN(C(=O)N2CCCC2)Cc2cnn(C)c21 (stereo unspecified)              -1
1  CCOCC1CN(S(C)(=O)=O)Cc2cnn(C)c21 (stereo unspecified)               1
2  Cn1cccc1C(=O)N1CCCC1c1ccc(CN2CCOCC2)cn1 (stereo unspecified)              -1
3  COCC1CN(C(=O)C2=CCCCC2)Cc2cnn(CC3CC3)c21 (stereo unspecified)               1
4  CCOCC1CN(C(=O)C2=CCCC2)Cc2cnn(C)c21 (stereo unspecified)              -1

// query Below 20% on Percent Effect? Entry CCOCc1cnc2n1CCN(C(=O)Cc1ccccn1)C2C.O=C(O)C(F)(F)F (stereo unspecified)
// result 1

// query Below 20% on Percent Effect? Entry O=C(CC1CCCCC1)N1C[C@H]2CC[C@@H]1CN(Cc1cccnc1)C2
// result 1

// query Below 20% on Percent Effect? Entry CC(=O)NCC(=O)N1CCCC1c1ccc(CN2CCOCC2)cn1 (stereo unspecified)
// result -1

----------
Parameter: Percent Effect. Scope: all listed entries.
Tested on: Wolbachia pipientis
Assay: Anti-Wolbachia Cell-Based Screen
Format: functional
Design: scale not given: in the data most compounds retested in dose-response had high values
Conditions: 5 µM
The whole screen tested about 48,000 compounds, of which about 13,000 (27%) showed an effect of 50% or more. This is one part of the list.
Give your result in % as a bare value.

Answered cases to consult:
>>> print(df.to_string())
                                   molecule  measured
0  COc1ccccc1CCNC(=O)CN1CCCC1c1noc(C)n1 (centres undefined)    -5.748
1  Cc1ccoc1C(=O)NC(CC(C)C)C(=O)N1CCC(CO)CC1 (centres undefined)    -14.58
2  Cc1ncc(CN(C)C(=O)c2ccc3c(c2O)OC(C)(C)C3)s1    -9.378
3               Cc1nc(CNC(=O)CCCc2cccs2)no1    -18.16

// query Look up Percent Effect of Cc1ccc(NC2CCN(C(=O)c3cccc4ncccc34)CC2)nn1 and report it.
// result 0.6647

// query Look up Percent Effect of COCCn1ccnc1CN(Cc1ccccn1)Cc1sccc1C and report it.
// result -1.6

// query Look up Percent Effect of Cc1cc(=O)[nH]c(-n2nc(C)c(CCC(=O)NCc3cccs3)c2C)n1 and report it.
// result 127.2

// query Look up Percent Effect of Cc1ccc2cnn(CCC(=O)NCc3c(C)nn(C)c3C)c2c1 and report it.
// result -12.76

// query Look up Percent Effect of CCSCc1cccc(NC(=O)N(C)Cc2ncnn2C)c1 and report it.
// result -22.36

----------
Tested on: Wolbachia pipientis
Test: Anti-Wolbachia Cell-Based Screen
Format: functional
Set-up: scale not given: in the data most compounds retested in dose-response had high values
Settings: 5 µM
The whole screen tested about 48,000 compounds, of which about 13,000 (27%) showed an effect of 50% or more. Some of the results follow.
Our labelling divides records by Percent Effect into ranges: class 1 = under -10%, class 2 = from -10% up to 10%, class 3 = 10% and over

Below, 7 compounds whose answers are already recorded.
>>> df
                                   compound  category_label
0  CN(Cc1nnc(C2CC2)n1C)C1CCN(Cc2ccccc2F)C1 (stereo unspecified)         class 2
1               COc1cccc(CCNC(=O)NC(C)C)c1O         class 2
2     CNC(=O)C(C)(C)N1CCC[C@H]1C(=O)NCC1CC1         class 3
3       N#CC1(C(=O)N2CCN(c3nccs3)CC2)CCCCC1         class 1
4  Cc1cccc(CN2C[C@@H]3[C@@H](C(=O)NCC(C)C)CCS(=O)(=O)[C@@H]3C2)c1.O=C(O)C(F)(F)F         class 3
5  CC(C)CNC(=O)[C@H]1CCS(=O)(=O)[C@@H]2CN(Cc3cccc(Cl)c3)C[C@H]12.O=C(O)C(F)(F)F         class 3
6  CNC(=O)C(NC(=O)CCc1cccc(OC2CCCC2)c1)C(C)C (stereo unspecified)         class 2

Lab note: next compound to report on.
// query # bin label for CC(C)N(CCNCc1ccc(C#N)cc1)C1CC1
// result class 1
